# Target or test system: T1, hCSF1R ECD.506-Fc (human)
# T1 construct: also called human CSF1R ECD-Fc fusion protein; human CSF1R ECD
# T1 sequence (chain, as listed by the source limits assumed): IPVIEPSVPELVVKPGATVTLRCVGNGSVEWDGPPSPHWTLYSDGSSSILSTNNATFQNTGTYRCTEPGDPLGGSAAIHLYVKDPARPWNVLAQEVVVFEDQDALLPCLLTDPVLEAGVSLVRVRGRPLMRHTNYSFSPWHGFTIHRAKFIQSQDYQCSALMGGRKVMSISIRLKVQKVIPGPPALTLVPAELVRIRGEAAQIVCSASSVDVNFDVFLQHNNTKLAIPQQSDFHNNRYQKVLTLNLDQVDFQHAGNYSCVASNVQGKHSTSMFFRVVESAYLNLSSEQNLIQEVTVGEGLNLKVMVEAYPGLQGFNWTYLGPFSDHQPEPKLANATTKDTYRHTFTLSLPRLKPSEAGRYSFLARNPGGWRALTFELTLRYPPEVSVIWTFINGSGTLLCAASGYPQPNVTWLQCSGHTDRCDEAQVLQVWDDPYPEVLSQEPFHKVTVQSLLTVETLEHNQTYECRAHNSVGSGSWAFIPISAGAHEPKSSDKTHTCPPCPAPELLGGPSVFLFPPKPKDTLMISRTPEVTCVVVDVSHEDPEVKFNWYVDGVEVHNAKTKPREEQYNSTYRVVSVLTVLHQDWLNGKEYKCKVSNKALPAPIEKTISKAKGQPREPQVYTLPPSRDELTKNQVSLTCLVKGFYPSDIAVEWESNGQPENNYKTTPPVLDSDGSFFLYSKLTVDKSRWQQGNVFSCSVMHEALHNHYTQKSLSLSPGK
# Experiment description: ELISA, plate coated with human CSF1R ECD-Fc
Reported endpoint: EC50 (µg/mL)
Reply numerically in µg/mL, unit not repeated.

Check out these entries, answers already filled in.
# Binder, EC50 (µg/mL)
records = [
    ("h0302-L0H1 (antibody, human IgG4 S228P, kappa, V domains shown, also called Ab7; huAb 0302-L0H1) VH: QVQLVQSGAEVKKPGSSVKVSCKASGYTFSDFNIHWVRQAPGQGLEWMGYINPYTDVTVYNEKFKGRVTITSDKSTSTAYMELSSLRSEDTAVYYCASYFDGTFDYALDYWGQGTLVTVSS VL: EIVLTQSPATLSLSPGERATLSCRASESVDNYGLSFMNWYQQKPGQAPRLLIYTASNLESGIPARFSGSGSGTDFTLTISSLEPEDFAVYYCQQSKELPWTFGQGTKVEIKR", 0.0146),
    ("h0311-L0H2 (antibody, human IgG4 S228P, kappa, V domains shown, also called Ab15; huAb 0311-L0H2) VH: QVQLVQSGAEVKKPGSSVKVSCKASGYIFTDYNMHWVRQAPGQGLEWMGEINPNNGVVVYNQKFKGTTTLTVDKSTSTAYMELSSLRSEDTAVYYCTRALYHSNFGWYFDSWGQGTLVTVSS VL: EIVLTQSPATLSLSPGERATLSCKASQSVDYDGDSHMNWYQQKPGQAPRLLIYTASNLESGIPARFSGSGSGTDFTLTISSLEPEDFAVYYCQQGNEDPWTFGQGTKVEIKR", 0.0115),
]

Consider now this further binder.
query: // query EC50 value for entry h0311-L0H1 (antibody, human IgG4 S228P, kappa, V domains shown, also called Ab13; huAb 0311-L0H1) VH: QVQLVQSGAEVKKPGSSVKVSCKASGYIFTDYNMHWVRQAPGQGLEWMGEINPNNGVVVYNQKFKGRVTITVDKSTSTAYMELSSLRSEDTAVYYCTRALYHSNFGWYFDSWGQGTLVTVSS VL: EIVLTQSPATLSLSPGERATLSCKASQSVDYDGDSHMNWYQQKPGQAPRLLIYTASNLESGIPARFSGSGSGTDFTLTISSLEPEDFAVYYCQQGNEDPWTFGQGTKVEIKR
result: 0.0131
